This section presents compounds with their documented Mean diff, hSERT efflux ± Mon (Šídák's multiple comparisons test) values.
Target: hSERT (Homo sapiens, UniProt P31645)
Construct: expressed in transfected cells
Sequence (P31645 whole entry): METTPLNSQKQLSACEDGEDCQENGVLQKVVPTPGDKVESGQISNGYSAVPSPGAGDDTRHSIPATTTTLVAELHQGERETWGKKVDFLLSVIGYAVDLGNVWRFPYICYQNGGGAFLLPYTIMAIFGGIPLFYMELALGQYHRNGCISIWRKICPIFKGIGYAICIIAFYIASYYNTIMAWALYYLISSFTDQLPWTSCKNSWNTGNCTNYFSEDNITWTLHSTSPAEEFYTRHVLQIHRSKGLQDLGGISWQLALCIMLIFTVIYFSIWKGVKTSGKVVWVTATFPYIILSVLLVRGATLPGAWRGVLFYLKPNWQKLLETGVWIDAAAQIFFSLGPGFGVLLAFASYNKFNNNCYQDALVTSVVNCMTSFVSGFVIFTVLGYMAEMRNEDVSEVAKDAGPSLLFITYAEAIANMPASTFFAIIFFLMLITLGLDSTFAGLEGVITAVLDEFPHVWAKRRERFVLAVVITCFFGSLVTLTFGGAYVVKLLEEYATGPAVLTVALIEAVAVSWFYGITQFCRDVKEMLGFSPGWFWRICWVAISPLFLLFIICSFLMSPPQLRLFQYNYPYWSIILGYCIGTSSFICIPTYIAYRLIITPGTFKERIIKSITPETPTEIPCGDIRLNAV
Format: cell-based
Conditions: Row 3 (time fraction); drug alone vs drug + monensin (Mon)
Just the number.

compound="CCCC(Cc1ccccc1F)N1CCCC1 (centres unmarked)" value=-0.031

Request: Reported Mean diff, hSERT efflux ± Mon (Šídák's multiple comparisons test), compound CCCC(Cc1cccc(C)c1)N1CCCC1 (centres unmarked) : ____
Result: 0.02833

----------
Target: hSERT (Homo sapiens, UniProt P31645)
Construct: expressed in transfected cells
Type: cell-based
Settings: Row 9 (time fraction); drug alone vs drug + monensin (Mon)
measured_endpoint: Mean diff, hSERT efflux ± Mon (Šídák's multiple comparisons test)
Just the number.

molecule="CCCC(Cc1ccccc1F)N1CCCC1 (centres unmarked)" target_system="hSERT (Homo sapiens, UniProt P31645)" value=-7.079

In the following, a different molecule is considered.
Request: Reported Mean diff, hSERT efflux ± Mon (Šídák's multiple comparisons test), molecule CCCC(Cc1cccc(C)c1)N1CCCC1 (centres unmarked) : ____
Result: -6.038

----------
This section presents molecules with their documented Mean diff, hSERT efflux ± Mon (Šídák's multiple comparisons test) values.
Biological target: hSERT (Homo sapiens)
Construct: expressed in transfected cells
Type: cell-based
Conditions: Row 11 (time fraction); drug alone vs drug + monensin (Mon)
Just the number.

molecule="CCCC(Cc1ccccc1F)N1CCCC1 (centres unmarked) [2-Fluoroprolintane]" value=-6.897

Request: Quick check: Mean diff, hSERT efflux ± Mon (Šídák's multiple comparisons test) on hSERT (Homo sapiens), item CCCC(Cc1cccc(C)c1)N1CCCC1 (centres unmarked) [3-Methylprolintane] ?
Result: -5.904

----------
Target: hSERT (Homo sapiens)
Construct: expressed in transfected cells
Type: cell-based
Conditions: Row 10 (time fraction); drug alone vs drug + monensin (Mon)
measured_endpoint: Mean diff, hSERT efflux ± Mon (Šídák's multiple comparisons test)
Just the number.

molecule="CCCC(Cc1ccccc1F)N1CCCC1 (centres unmarked)" target_system="hSERT (Homo sapiens)" value=-7.103

In the following, a different molecule is considered.
Request: Reported Mean diff, hSERT efflux ± Mon (Šídák's multiple comparisons test), molecule CCCC(Cc1cccc(C)c1)N1CCCC1 (centres unmarked) : ____
Result: -6.018

----------
Biological target: hNET (Homo sapiens, UniProt P23975)
Construct: expressed in transfected cells
Sequence (P23975 whole entry): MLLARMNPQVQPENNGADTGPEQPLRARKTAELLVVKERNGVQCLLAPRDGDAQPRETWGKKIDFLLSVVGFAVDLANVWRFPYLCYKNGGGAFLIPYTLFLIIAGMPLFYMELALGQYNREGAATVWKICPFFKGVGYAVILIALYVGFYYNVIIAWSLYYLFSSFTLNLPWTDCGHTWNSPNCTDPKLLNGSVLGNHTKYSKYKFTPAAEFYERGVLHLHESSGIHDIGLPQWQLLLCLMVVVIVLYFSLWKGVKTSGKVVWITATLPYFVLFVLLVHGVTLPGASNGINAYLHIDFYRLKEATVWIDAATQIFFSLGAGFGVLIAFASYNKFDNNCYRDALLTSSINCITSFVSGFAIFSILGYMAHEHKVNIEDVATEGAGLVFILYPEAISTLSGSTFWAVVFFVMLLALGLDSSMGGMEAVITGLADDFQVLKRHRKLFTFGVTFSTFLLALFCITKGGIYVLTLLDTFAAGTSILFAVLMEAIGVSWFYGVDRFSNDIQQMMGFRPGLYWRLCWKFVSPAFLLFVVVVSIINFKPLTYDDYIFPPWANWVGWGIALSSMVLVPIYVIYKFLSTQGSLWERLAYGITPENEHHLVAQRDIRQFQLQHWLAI
Experiment: Batch release assay ([3H]MPP+) in transfected HEK293 cells
Assay type: cell-based
Details: % efflux of total uptake, compounds approximately at IC50 concentration
Counter-ions that a name gives are not always drawn.
measured_endpoint: hNET-mediated efflux, predicted (LS) mean diff, No mon - Mon

molecule="CCCC(Cc1ccccc1)N1CCCC1 (stereo not drawn)" value=-0.3446
molecule="CCCC(Cc1ccccc1F)N1CCCC1 (stereo not drawn)" value=0.3867
molecule="CCCC(Cc1ccc(F)cc1)N1CCCC1 (stereo not drawn)" value=0.3845
molecule="CCCC(Cc1ccc(C)cc1)N1CCCC1 (stereo not drawn)" value=-0.3451
molecule="CCCC(Cc1ccccc1C)N1CCCC1 (stereo not drawn)" value=-0.3417

Request: Reported hNET-mediated efflux, predicted (LS) mean diff, No mon - Mon, molecule Fc1ccc(C(OCCN2CCN(CCCc3ccccc3)CC2)c2ccc(F)cc2)cc1 [GBR12909, vanoxerine, reference compound] : ____
Result: -0.7072

Request: Reported hNET-mediated efflux, predicted (LS) mean diff, No mon - Mon, molecule CCCC(Cc1cccc(C)c1)N1CCCC1 (stereo not drawn) : ____
Result: -0.8634

Request: Reported hNET-mediated efflux, predicted (LS) mean diff, No mon - Mon, molecule C[C@H](N)Cc1ccccc1 [S-(+)-amphetamine, dextroamphetamine hemi sulfate salt, reference compound] : ____
Result: -5.397

Request: Reported hNET-mediated efflux, predicted (LS) mean diff, No mon - Mon, molecule CCCC(Cc1cccc(F)c1)N1CCCC1 (stereo not drawn) : ____
Result: 0.3678

----------
Target: rSERT (Rattus norvegicus, UniProt P31652)
Sequence (P31652 whole entry): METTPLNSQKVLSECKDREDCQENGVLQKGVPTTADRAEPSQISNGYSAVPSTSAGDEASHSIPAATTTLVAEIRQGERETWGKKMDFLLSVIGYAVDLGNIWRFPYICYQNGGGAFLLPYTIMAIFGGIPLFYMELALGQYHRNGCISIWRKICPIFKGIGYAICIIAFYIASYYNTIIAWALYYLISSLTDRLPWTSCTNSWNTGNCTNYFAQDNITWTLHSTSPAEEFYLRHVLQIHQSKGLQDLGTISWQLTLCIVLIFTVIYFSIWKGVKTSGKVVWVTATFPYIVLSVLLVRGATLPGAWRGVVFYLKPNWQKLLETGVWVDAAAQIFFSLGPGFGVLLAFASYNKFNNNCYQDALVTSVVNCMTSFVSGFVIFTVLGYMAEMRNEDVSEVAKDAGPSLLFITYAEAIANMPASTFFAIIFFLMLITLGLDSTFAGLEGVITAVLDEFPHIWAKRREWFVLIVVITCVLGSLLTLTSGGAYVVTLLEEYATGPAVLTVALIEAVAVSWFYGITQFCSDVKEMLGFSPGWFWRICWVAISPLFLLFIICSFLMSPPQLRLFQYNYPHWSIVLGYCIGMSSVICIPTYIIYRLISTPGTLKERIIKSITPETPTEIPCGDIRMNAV
Assay: Uptake inhibition assay ([3H]5-HT) in rat brain synaptosomes
Format: biochemical
Set-up: As a means to evaluate transporter activity of prolintane analogs in native tissue preparation; from tissue; host or cells: rat brain synaptosomes (whole brain minus caudate and cerebellum)
This section presents molecules with their documented IC50 values.
State just the number; it will be interpreted in nM.

Known results for molecules:
molecule="CCCC(Cc1ccc(C)cc1)N1CCCC1 (stereo not drawn)" target_system="rSERT (Rattus norvegicus, UniProt P31652)" value=72
molecule="CCCC(Cc1cccc(F)c1)N1CCCC1 (stereo not drawn)" target_system="rSERT (Rattus norvegicus, UniProt P31652)" value=521
molecule="CCCC(Cc1ccc(F)cc1)N1CCCC1 (stereo not drawn)" target_system="rSERT (Rattus norvegicus, UniProt P31652)" value=884
molecule="CCCC(Cc1cccc(C)c1)N1CCCC1 (stereo not drawn)" target_system="rSERT (Rattus norvegicus, UniProt P31652)" value=139

Request: Reported IC50, molecule CCCC(Cc1ccccc1F)N1CCCC1 (stereo not drawn) : ____
Result: 2230

Request: Reported IC50, molecule CCCC(Cc1ccccc1)N1CCCC1 (stereo not drawn) : ____
Result: 2320

----------
Target: hDAT (Homo sapiens)
Construct: expressed in transfected cells
Sequence (Q01959 whole entry): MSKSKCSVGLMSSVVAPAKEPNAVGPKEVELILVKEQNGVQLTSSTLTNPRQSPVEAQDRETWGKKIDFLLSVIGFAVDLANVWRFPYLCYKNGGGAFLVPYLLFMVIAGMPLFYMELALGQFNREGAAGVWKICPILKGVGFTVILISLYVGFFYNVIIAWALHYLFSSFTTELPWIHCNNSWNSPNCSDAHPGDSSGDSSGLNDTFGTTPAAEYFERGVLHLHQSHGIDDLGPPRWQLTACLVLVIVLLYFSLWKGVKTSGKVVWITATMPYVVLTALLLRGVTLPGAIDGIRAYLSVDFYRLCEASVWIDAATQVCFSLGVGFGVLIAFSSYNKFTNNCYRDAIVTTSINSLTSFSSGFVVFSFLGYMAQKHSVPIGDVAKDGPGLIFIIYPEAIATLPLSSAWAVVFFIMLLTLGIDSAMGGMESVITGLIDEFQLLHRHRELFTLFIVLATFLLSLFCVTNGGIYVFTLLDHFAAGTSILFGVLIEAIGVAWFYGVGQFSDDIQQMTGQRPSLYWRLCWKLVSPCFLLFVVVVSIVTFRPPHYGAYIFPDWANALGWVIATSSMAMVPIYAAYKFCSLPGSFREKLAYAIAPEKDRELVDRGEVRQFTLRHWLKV
Experiment: Uptake inhibition assay ([3H]DA) in transfected HEK293 cells
Type: cell-based
Conditions: human isoform (h); 1/DAT IC50 / 1/SERT IC50
This section presents compounds with their documented DAT/SERT ratio values.
Just the number.

Known results for compounds:
compound="CCCC(Cc1ccccc1)N1CCCC1 (stereo not shown)" target_system="hDAT (Homo sapiens)" measured_endpoint="DAT/SERT ratio" value=670
compound="CCCC(Cc1ccccc1C)N1CCCC1 (stereo not shown)" target_system="hDAT (Homo sapiens)" measured_endpoint="DAT/SERT ratio" value=23
compound="CCCC(Cc1cccc(F)c1)N1CCCC1 (stereo not shown)" target_system="hDAT (Homo sapiens)" measured_endpoint="DAT/SERT ratio" value=210
compound="CCCC(Cc1cccc(C)c1)N1CCCC1 (stereo not shown)" target_system="hDAT (Homo sapiens)" measured_endpoint="DAT/SERT ratio" value=53
compound="CCCC(Cc1ccc(C)cc1)N1CCCC1 (stereo not shown)" target_system="hDAT (Homo sapiens)" measured_endpoint="DAT/SERT ratio" value=159
compound="CCCC(Cc1ccc(F)cc1)N1CCCC1 (stereo not shown)" target_system="hDAT (Homo sapiens)" measured_endpoint="DAT/SERT ratio" value=179

In the following, a different compound is considered.
Request: Reported DAT/SERT ratio, compound CCCC(Cc1ccccc1F)N1CCCC1 (stereo not shown) : ____
Result: 323

----------
Target: UniProt:Q01959
Assay: Uptake inhibition assay ([3H]DA) in transfected HEK293 cells
This section presents compounds with their documented IC50 values.
State just the number; it will be interpreted in nM.

Known results for compounds:
compound="CCCC(Cc1ccccc1F)N1CCCC1 (stereo not shown)" value=109
compound="CCCC(Cc1ccccc1C)N1CCCC1 (stereo not shown)" value=185
compound="CCCC(Cc1ccccc1)N1CCCC1 (stereo not shown)" value=43

In the following, a different compound is considered.
Request: Reported IC50, compound CCCC(Cc1ccc(F)cc1)N1CCCC1 (stereo not shown) : ____
Result: 109

----------
Biological target: hNET (Homo sapiens)
Test: Uptake inhibition assay ([3H]MPP+) in transfected HEK293 cells
measured_endpoint: IC50 (nM)
State just the number; it will be interpreted in nM.

compound="CCCC(Cc1ccccc1F)N1CCCC1 (stereo not shown)" value=102
compound="CCCC(Cc1cccc(C)c1)N1CCCC1 (stereo not shown)" value=139
compound="CCCC(Cc1ccc(F)cc1)N1CCCC1 (stereo not shown)" value=307

Request: Quick check: IC50 on hNET (Homo sapiens), item CCCC(Cc1ccc(C)cc1)N1CCCC1 (stereo not shown) ?
Result: 72

Request: Quick check: IC50 on hNET (Homo sapiens), item CCCC(Cc1ccccc1)N1CCCC1 (stereo not shown) ?
Result: 59

Request: Quick check: IC50 on hNET (Homo sapiens), item CCCC(Cc1ccccc1C)N1CCCC1 (stereo not shown) ?
Result: 119

Request: Quick check: IC50 on hNET (Homo sapiens), item CCCC(Cc1cccc(F)c1)N1CCCC1 (stereo not shown) ?
Result: 35

----------
Target: rDAT (Rattus norvegicus)
Construct: As a means to evaluate transporter activity of prolintane analogs in native tissue preparation; from tissue; host or cells: rat caudate synaptosomes
Sequence (P23977 whole entry): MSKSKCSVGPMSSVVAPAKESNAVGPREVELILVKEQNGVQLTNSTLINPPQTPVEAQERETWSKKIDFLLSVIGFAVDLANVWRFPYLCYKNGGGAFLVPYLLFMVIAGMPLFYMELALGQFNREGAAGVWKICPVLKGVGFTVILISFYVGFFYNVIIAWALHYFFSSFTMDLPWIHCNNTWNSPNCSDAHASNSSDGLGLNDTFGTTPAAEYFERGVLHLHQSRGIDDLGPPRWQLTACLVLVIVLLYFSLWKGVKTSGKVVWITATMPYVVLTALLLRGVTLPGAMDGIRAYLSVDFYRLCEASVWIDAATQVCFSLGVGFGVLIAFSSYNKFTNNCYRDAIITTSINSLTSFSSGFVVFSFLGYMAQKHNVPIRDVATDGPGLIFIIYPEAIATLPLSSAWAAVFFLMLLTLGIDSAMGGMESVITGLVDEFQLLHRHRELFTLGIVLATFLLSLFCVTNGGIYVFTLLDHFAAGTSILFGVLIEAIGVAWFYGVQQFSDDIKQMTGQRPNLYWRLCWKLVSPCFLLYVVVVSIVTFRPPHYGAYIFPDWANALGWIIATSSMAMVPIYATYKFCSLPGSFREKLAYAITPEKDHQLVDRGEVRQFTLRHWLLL
Experiment: Uptake inhibition assay ([3H]dopamine) in rat brain synaptosomes
Format: biochemical
Settings: rat isoform (r); 1/DAT IC50 / 1/SERT IC50
This section presents molecules with their documented DAT/SERT ratio values.

Known results for molecules:
molecule="CCCC(Cc1ccc(C)cc1)N1CCCC1 (stereo not shown)" value=1.9
molecule="CCCC(Cc1ccccc1)N1CCCC1 (stereo not shown)" value=38

In the following, a different molecule is considered.
Request: Reported DAT/SERT ratio, molecule CCCC(Cc1ccc(F)cc1)N1CCCC1 (stereo not shown) : ____
Result: 4.2

meta.source: paper PMC12720098
